From: paper PMC10208956

IL-12p70 by entry:
# Test system: bulk TILs (patient 1635WI)
# test: Cytokine and chemokine secretion of bulk TILs stimulated with IPdBPs
# Assay type: cell-based, human
# Design: key: pg/mL, negative-control amount subtracted
# condition-details: secretion by bulk TILs after peptide stimulation; sheet 1e
Form field (numeric): enter value without unit.

Some substances with known IL-12p70 results, for comparison:
*Q* Which value of IL-12p70 has been reported for VFAIDRAGLVGEDGPT [Peptidome.Bac 5] in the records?
*A* 0

*Q* Consider next the substance Ac-QPVEFNHAIHYVN-NH2 [SIN3A*] in the same way.
*A* 0

*Q* And what about the substance AGPVVAAAVILKEDC [Peptidome.Bac 7] ?
*A* 2.8

Note: attention shifts to another entry.
*Q* Item under review: QALVTLEENAVIG [Peptidome.Bac 14] . Reported IL-12p70?
*A* 0

====

The substances listed here are annotated with their CD40 Ligand.
# System: bulk TILs (patient 1635WI)
# test: Cytokine and chemokine secretion of bulk TILs stimulated with IPdBPs
# Format: cell-based, human
# Set-up: key: pg/mL, negative-control amount subtracted
# condition-details: secretion by bulk TILs after peptide stimulation; sheet 1e
Give a plain numeric answer without units written out.

Look over these answered cases.
*Q* Looking for the measured CD40 Ligand of VFAIDRAGLVGEDGPT [Peptidome.Bac 5] , can you help?
*A* 0

*Q* How about this substance: QALVTLEENAVIG [Peptidome.Bac 14]
*A* 666.28

*Q* Do the same for AGPVVAAAVILKEDC [Peptidome.Bac 7] please
*A* 994.39

Next:
*Q* Reported CD40 Ligand for Ac-QPVEFNHAIHYVN-NH2 [SIN3A*] : what is it?
*A* 1225.7

====

# Tested on: bulk TILs (patient 1635WI)
# test: Cytokine and chemokine secretion of bulk TILs stimulated with IPdBPs
# Assay type: cell-based, human
# Parameters: key: pg/mL, negative-control amount subtracted
# condition-details: secretion by bulk TILs after peptide stimulation; sheet 1e
experimental-readout: IL-33

*Q* Given the substance QALVTLEENAVIG [Peptidome.Bac 14] , what is its reported IL-33?
*A* 4.57

*Q* And VFAIDRAGLVGEDGPT [Peptidome.Bac 5] ?
*A* 0

*Q* Then what about the substance Ac-QPVEFNHAIHYVN-NH2 [SIN3A*] ?
*A* 6.61

Would you kindly look at the next entry?
*Q* Which value of IL-33 has been reported for AGPVVAAAVILKEDC [Peptidome.Bac 7] in the records?
*A* 0

====

# Test system: sorted CD4+ PE and FITC TCRVβ+ TILs
# test: Proliferation of TCRBV-sorted CD4+ TILs (without TCRBV6.1 and TCRBV6.2)
# Type: cell-based, human
# condition-details: sheet 6b, replicate 3
Friendly reminder: Proliferation (SI) of sorted CD4+ TILs below 3 is class 1, at or above is class 0.

Worked examples, 5 substances total:
*Q* Determine if LWEFNNVSLA [HB4, UniProt bacteria database peptide] shows Proliferation (SI) of sorted CD4+ TILs strictly lower than 3.
*A* class 1

*Q* Also LYEFNHSPGF [HGM7, human gut microbiota peptide] ?
*A* class 0

*Q* Follow-up entry: QLEFNHAIAS [HB2, UniProt bacteria database peptide]
*A* class 1

*Q* Again, but for Ac-VFDFNHSAIK-NH2 [HGM62]
*A* class 1

*Q* Same again, this time with Ac-VWEFNHSLHP-NH2 [HGM27]
*A* class 1

New cases:
*Q* Say whether its Proliferation (SI) of sorted CD4+ TILs is strictly beneath 3. Entry: Ac-LLEFNHSLGM-NH2 [HGM3]
*A* class 1

*Q* Also Ac-QPVEFNHAIHYVN-NH2 [SIN3A*] , if possible.
*A* class 0

*Q* Field entry: LLDFNHSMVN [HGM26, human gut microbiota peptide]
*A* class 1

====

# System: bulk TILs (patient 1635WI)
# test: Cytokine and chemokine secretion of bulk TILs stimulated with IPdBPs
# Format: cell-based, human
# condition-details: secretion by bulk TILs after peptide stimulation; sheet 1e
# Text: Fig. 1 Elution of HLA class II-presented bacterial peptides from 19 glioblastomas and the stimulatory effect of IPdBPs on bulk TILs. a, Schematic of the immunopeptidome analyses of glioblastoma tissue, from which eluted peptides were annotated using the UniProt bacteria database (1). TILs or peripheral memory T cells were stimulated with IPdBPs (2 and 3). […] The data are expressed as the mean value of all wells ± s.e.m. […]
experimental-readout: IL-17E/IL-25
Just the number, please, no unit attached.

Examples from the recorded data:
*Q* Could you share which IL-17E/IL-25 value was measured for AGPVVAAAVILKEDC [Peptidome.Bac 7] ?
*A* 0

*Q* Note, next up: Ac-QPVEFNHAIHYVN-NH2 [SIN3A*]
*A* 0

*Q* Subsequent entry: VFAIDRAGLVGEDGPT [Peptidome.Bac 5]
*A* 0

---
*Q* Quick one: IL-17E/IL-25 of QALVTLEENAVIG [Peptidome.Bac 14] ?
*A* 0

====

# Test system: bulk TILs (patient 1635WI)
# test: Cytokine and chemokine secretion of bulk TILs stimulated with IPdBPs
# Assay type: cell-based, human
# Parameters: key: pg/mL, negative-control amount subtracted
# condition-details: secretion by bulk TILs after peptide stimulation; sheet 1e
experimental-readout: IL-1β
Answer with a number only.

Reference set, count: 3
*Q* Request the reported IL-1β associated with VFAIDRAGLVGEDGPT [Peptidome.Bac 5]
*A* 0

*Q* And for QALVTLEENAVIG [Peptidome.Bac 14] ?
*A* 0

*Q* Here is the next substance: Ac-QPVEFNHAIHYVN-NH2 [SIN3A*]
*A* 5.99

Alright, here's another substance for you.
*Q* GET /values?readout=IL-1β&item= AGPVVAAAVILKEDC [Peptidome.Bac 7]
*A* 0

====

# System: bulk TILs (patient 1635WI)
# test: Cytokine and chemokine secretion of bulk TILs stimulated with IPdBPs
# Type: cell-based, human
# Set-up: key: pg/mL, negative-control amount subtracted
# condition-details: secretion by bulk TILs after peptide stimulation; sheet 1e
experimental-readout: Granzyme B
API doc: respond with a numeric literal and nothing else, no unit.

These solved cases illustrate the format of a correct answer.
*Q* Any idea what Granzyme B was measured for Ac-QPVEFNHAIHYVN-NH2 [SIN3A*] ?
*A* 136.59

*Q* Another substance to look at: VFAIDRAGLVGEDGPT [Peptidome.Bac 5]
*A* 0

*Q* Lookup QALVTLEENAVIG [Peptidome.Bac 14]
*A* 0

// next item, Granzyme B requested
*Q* Sample AGPVVAAAVILKEDC [Peptidome.Bac 7] — what was its Granzyme B?
*A* 0

====

# Tested on: bulk TILs (patient 1635WI)
# test: Cytokine and chemokine secretion of bulk TILs stimulated with IPdBPs
# Format: cell-based, human
# Set-up: unit not given beside the values
# condition-details: secretion by bulk TILs after peptide stimulation; sheet 1e
Below, each of the substances is paired with its reported CCL2/MCP-1 value.

Illustrative cases are given below, each with its answer.
*Q* Which CCL2/MCP-1 reading was recorded for the substance Ac-QPVEFNHAIHYVN-NH2 [SIN3A*] ?
*A* 2816.44

*Q* How about QALVTLEENAVIG [Peptidome.Bac 14] ?
*A* 351.37

*Q* Entry AGPVVAAAVILKEDC [Peptidome.Bac 7] please
*A* 11.43

Attention now shifts to the item below.
*Q* Look at this substance and give its reported CCL2/MCP-1. VFAIDRAGLVGEDGPT [Peptidome.Bac 5]
*A* 40.48

====

Entries and their measured IL-6 follow.
# Test system: bulk TILs (patient 1635WI)
# test: Cytokine and chemokine secretion of bulk TILs stimulated with IPdBPs
# Type: cell-based, human
# Set-up: key: pg/mL, negative-control amount subtracted
# condition-details: secretion by bulk TILs after peptide stimulation; sheet 1e
Reply: number alone, nothing else.

Look over these answered cases.
*Q* Value wanted: IL-6 (bulk TILs (patient 1635WI)) of entry VFAIDRAGLVGEDGPT [Peptidome.Bac 5]
*A* 8.61

*Q* Subsequent entry: Ac-QPVEFNHAIHYVN-NH2 [SIN3A*]
*A* 23.1

*Q* Would you mind doing AGPVVAAAVILKEDC [Peptidome.Bac 7] as well?
*A* 16.87

# evaluate next
*Q* Give IL-6 (bulk TILs (patient 1635WI)) of the following substance: QALVTLEENAVIG [Peptidome.Bac 14]
*A* 110.14
